Tested on: NCI/ADR-RES ovarian
Assay: NCI tumour cell line growth inhibition, 48 h; in the data active = GI50 below about 0.43 µM; inactive = the rest
Possible outcomes: TRUE for active, FALSE for inactive

{"Compound": "Clc1ccc(CSC(Cn2ccnc2)c2ccc(Cl)cc2Cl)cc1 (configuration not stated)", "Label Value": "FALSE"}
{"Compound": "CCSCC1CC(O)(c2ccccc2)C(c2ccccc2)C(c2ccc(Cl)cc2)O1 (configuration not stated)", "Label Value": "FALSE"}
{"Compound": "Cn1cc(-c2ccc3c(Nc4cccc(NC(=O)Nc5cccc(F)c5)c4)ncnc3c2)cn1", "Label Value": "FALSE"}
{"Compound": "CC12CCC3C(CCC4Cc5[nH]c6ccccc6c5CC43C)C1CCC2O (configuration not stated)", "Label Value": "FALSE"}
{"Compound": "C=C1C(=O)O[C@H]2[C@H]1CC/C(CNC(=O)Cc1c[nH]c3ccccc13)=C\\CC[C@@]1(C)O[C@@H]21", "Label Value": "FALSE"}
{"Compound": "O=C(Nc1cccc(-n2ccc3c(NC(=O)c4ccccc4)nccc32)c1)c1ccc(N2CCOCC2)c(C(F)(F)F)c1", "Label Value": "TRUE"}
{"Compound": "COC(=O)CCC(=O)C(=O)OC", "Label Value": "FALSE"}
{"Compound": "COc1cc2c3c(n(CCCN)c(=O)c2cc1OC)-c1ccccc1C3=O", "Label Value": "FALSE"}
{"Compound": "N#Cc1c(-c2ccccc2)nc(SCC2CO2)nc1N1CCOCC1 (configuration not stated)", "Label Value": "FALSE"}
{"Compound": "O=C(NC1CCN(Cc2ccccc2)CC1)c1cc(-c2ccncc2)nc2ccc(Cl)cc12", "Label Value": "FALSE"}
{"Compound": "F", "Label Value": "FALSE"}
{"Compound": "COc1ccc2oc(=O)cc(C(c3ccc[nH]3)c3ccc[nH]3)c2c1", "Label Value": "TRUE"}

---

Tested on: UACC-62 melanoma
Assay: NCI tumour cell line growth inhibition, 48 h
Structures can show the parent of a compound that is named as a salt. Where a SMILES comes first, the peptide text is derived from it. The star is where a group is joined. Tfa = O=C(C(F)(F)F)*
Measured TGI by item

{"Molecule": "CC1CC[C@]2(C(=O)O)CCC3(COC(=O)/C=C\\c4ccc(O)cc4)C(=CCC4[C@@]5(C)CC[C@H](O)C(C)(C)C5CC[C@]43C)[C@@H]2[C@H]1C (stereo not given in full)", "Measurement Units": "µM", "Comparison Symbol": "=", "TGI": 32.6}
{"Molecule": "C=CC[n+]1c(/C=C/C=C2\\N(C)c3ccccc3C2(C)C)sc2ccc(OC)cc21", "Measurement Units": "µM", "Comparison Symbol": "=", "TGI": 2.65}
{"Molecule": "O=C(Nc1ccc(Cl)c(Cl)c1)c1cccc(NC2=C(Cl)C(=O)N(Cc3ccccc3)C2=O)c1", "Measurement Units": "µM", "Comparison Symbol": ">", "TGI": 100}
{"Molecule": "CC(C)/C=C1\\CCC(CN2CCCC2)C1=O (stereo not given)", "Measurement Units": "µM", "Comparison Symbol": "=", "TGI": 47.4}
{"Molecule": "O=C(O)CC(NC(=O)C(F)(F)F)C(=O)NC(Cc1ccc(O)cc1)C(=O)O (stereo not drawn) (Tfa-Asp-Tyr-OH; configuration not given here)", "Measurement Units": "µM", "Comparison Symbol": ">", "TGI": 50}
{"Molecule": "O=C1c2ccccc2-c2c1c1ccccc1c(=O)n2CCCCNCCCn1c2c(c3ccccc3c1=O)C(=O)c1ccccc1-2", "Measurement Units": "µM", "Comparison Symbol": "=", "TGI": 3.22}
{"Molecule": "C=C(CN(C)C)C(=O)c1ccccc1C", "Measurement Units": "µM", "Comparison Symbol": ">", "TGI": 62.3}
{"Molecule": "N#Cc1ccccc1NC(=O)/C(=N\\N)C(C(=O)c1ccncc1)C1OC(=O)c2ccccc21 (stereo not given)", "Measurement Units": "µM", "Comparison Symbol": ">", "TGI": 100}
{"Molecule": "Nc1ncnc2c1ncn2C1OC(COP(=O)(O)O)C(O)C1O (stereo not given)", "Measurement Units": "µM", "Comparison Symbol": ">", "TGI": 50}
{"Molecule": "ClCCCN(CCCCl)c1ccc(C=Nc2cccc(Cl)c2)cc1", "Measurement Units": "µM", "Comparison Symbol": "=", "TGI": 15.4}
{"Molecule": "Cc1c(NC(=S)NN)c(=O)n(-c2ccccc2)n1C", "Measurement Units": "µM", "Comparison Symbol": ">", "TGI": 100}
{"Molecule": "CCCCCCCCCCCCNC(C)=O", "Measurement Units": "µM", "Comparison Symbol": "=", "TGI": 30.2}
{"Molecule": "NCC(=O)NC1(c2cc3ccccc3s2)CCCCC1", "Measurement Units": "µM", "Comparison Symbol": "=", "TGI": 44.5}
{"Molecule": "COc1cc2c(/C=C3/C(=O)N(C)c4ccccc43)c(Cl)[nH]c2cc1C", "Measurement Units": "µM", "Comparison Symbol": ">", "TGI": 52.3}
{"Molecule": "Cc1c2cc[n+](C)cc2c(C)c2c1sc1ccccc12", "Measurement Units": "µM", "Comparison Symbol": "=", "TGI": 4.25}
{"Molecule": "COc1ccccc1NC(=O)c1sc2nc3c(cc2c1N)C(=O)CCC3", "Measurement Units": "µM", "Comparison Symbol": ">", "TGI": 100}
{"Molecule": "CCCCCC(C)(C)CCC(=O)OC1OC(COC2OC(COC3OC(CO)C(O)C(O)C3O)C(O)C(O)C2O)C(O)C(O)C1O (stereo not given)", "Measurement Units": "µM", "Comparison Symbol": ">", "TGI": 100}
{"Molecule": "COc1ccccc1/C=C/C1=NN(c2cccc(S(=O)(=O)O)c2)C2(C1)SCC(=O)N2c1nc2ccccc2s1 (stereo not given)", "Measurement Units": "µM", "Comparison Symbol": ">", "TGI": 100}
{"Molecule": "Cc1cn(Cc2ccccc2CCO)c(=S)[nH]c1=O", "Measurement Units": "µM", "Comparison Symbol": ">", "TGI": 100}
{"Molecule": "O=C1[C@@H]2C(c3ccccc3Br)=NO[C@@H]2C(=O)N1c1ccc(Cc2ccc(N3C(=O)[C@H]4C(c5ccccc5Br)=NO[C@H]4C3=O)cc2)cc1", "Measurement Units": "µM", "Comparison Symbol": ">", "TGI": 100}
